system: HEK-293T; experiment: Multiplex assay against HEK293T; assay type: toxicity, cell-based; conditions: human, 24 h, 10 µM, compound concentration 10 uM, number of replicates 2
Provide the recorded Population Membrane Permeable-Phenotype (%) for the entries that follow.
Numeric only. Scale: %

Form field: reported Population Membrane Permeable-Phenotype (%) of COc1ncc(-c2cc(-c3ncc(CN4C[C@@H](C)O[C@@H](C)C4)o3)c3cn[nH]c3c2)cc1NS(C)(=O)=O
1

Let us now turn to Cc1c(C(=O)Nc2ccc(N3C[C@@H](C)O[C@@H](C)C3)nc2)cccc1-c1ccc(OC(F)(F)F)cc1
3

Similarly, N=C(N)NCCC[C@H](NC(=O)COCC(c1ccccc1)c1ccccc1)C(=O)O.O=C(O)C(F)(F)F ?
2

Same thing, different compound: CCn1c(-c2nonc2N)nc2cncc(C(=O)N3CC[C@H](N)C3)c21.Cl
1
